- EXPERIMENT: Growth inhibition of human JR8 cells after 72 hrs by trypan blue assay
- Assay type: functional, cell-based
- CONDITIONS: JR8, 72 h
READOUT: IC50 (nM)
One number for each entry, in nM.

Asked: Please look at this compound and report its IC50: CC(=O)c1ccc(Nc2ccnc3ccc4[nH]ccc4c23)cc1.Cl
Given back: 590
